system: ASPS-1 complex tumor spheroids, viability; test: Anticancer human tumor ASPS-1 cell line growth inhibition; settings: second compound 1 µM; first compound 0.949 µM; active compounds read low;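 also: spheroids exposed to agents for 7 days after 3 days of growth; 100% = DMSO vehicle treated spheroids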
Kindly supply the reported viability, T/C values for the records listed here.
Your answer is read as %, so omit the unit and give the number.

Which measured viability, T/C value corresponds to Cn1ncnc1[C@H]1c2n[nH]c(=O)c3cc(F)cc(c23)N[C@@H]1c1ccc(F)cc1 + Cn1nnc2c(C(N)=O)ncn2c1=O ? 96.3

Which measured viability, T/C value corresponds to Cc1sc2c(c1C)C(c1ccc(Cl)cc1)=NC(CC(=O)Nc1ccc(O)cc1)c1nnc(C)n1-2 (centres undefined) + Cn1nnc2c(C(N)=O)ncn2c1=O ? 91.6

Which measured viability, T/C value corresponds to O=C(c1cc(Cc2n[nH]c(=O)c3ccccc23)ccc1F)N1CCN(C(=O)C2CC2)CC1 + Cn1nnc2c(C(N)=O)ncn2c1=O ? 92.6

Which measured viability, T/C value corresponds to CNCc1ccc(-c2cc(-c3nc(-c4ccc(S(=O)(=O)C(C)C)cc4)cnc3N)on2)cc1 + Cn1nnc2c(C(N)=O)ncn2c1=O ? 31.1
